# measured_on: Odorant binding protein 18 (OBP18) (Apis mellifera, UniProt A0ACM8Q9Q2)
# Construct: recombinant mature protein
# Sequence (A0ACM8Q9Q2 17-135): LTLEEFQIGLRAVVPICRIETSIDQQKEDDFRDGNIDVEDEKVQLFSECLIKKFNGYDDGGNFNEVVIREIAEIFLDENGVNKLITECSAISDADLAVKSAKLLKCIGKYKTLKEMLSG
# assay_remarks: biochemical
# study_conditions: IC50 against 2 uM 1-NPN

compound	IC50
CC(=O)CC/C=C(\C)CCC=C(C)C	1800 nM
CC(C)=CCCC(C)CC=O (stereo not shown)	2500 nM
CCCCCC(C)=O	2400 nM
CC(=O)OCCc1ccccc1 [2-Phenylethyl acetate]	2500 nM

---

# measured_on: OBP21 (Apis mellifera, UniProt A0ACM8Q9Q6)
# Construct: purified recombinant protein
# Sequence (A0ACM8Q9Q6 17-135): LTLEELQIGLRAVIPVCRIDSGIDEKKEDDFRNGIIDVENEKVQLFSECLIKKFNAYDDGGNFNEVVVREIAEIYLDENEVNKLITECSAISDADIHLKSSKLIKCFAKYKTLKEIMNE
# assay_remarks: biochemical
# study_conditions: IC50 against 2 uM 1-NPN
Listed next: entries and their corresponding IC50.

compound	measured_on	sign	IC50 / µM
CCCCCCCCCCCC(=O)O [Dodecanoic acid]	OBP21 (Apis mellifera, UniProt A0ACM8Q9Q6)	=	10
CC(C)=CCCC(C)CC=O (stereo not shown) [Citronellal]	OBP21 (Apis mellifera, UniProt A0ACM8Q9Q6)	=	8
Cc1ccccc1C=CC=O [2-Methylcinnamaldehyde]	OBP21 (Apis mellifera, UniProt A0ACM8Q9Q6)	=	18
OCc1ccccc1 [Benzyl alcohol]	OBP21 (Apis mellifera, UniProt A0ACM8Q9Q6)	>	20
CC(C)CCCC(C)CCO (stereo not shown) [3,7-dimethyloctanol]	OBP21 (Apis mellifera, UniProt A0ACM8Q9Q6)	=	2.2
CCCCCCCCCCCCCCCCCC(=O)OC [Methyl stearate]	OBP21 (Apis mellifera, UniProt A0ACM8Q9Q6)	>	20
CCCCCCCC/C=C\CCCCCCCC(=O)O [oleic acid]	OBP21 (Apis mellifera, UniProt A0ACM8Q9Q6)	=	0.3

---

# measured_on: Odorant binding protein 18 (OBP18) (Apis mellifera, UniProt A0ACM8Q9Q2)
# Construct: recombinant mature protein
# assay_remarks: biochemical
# study_conditions: IC50 against 2 uM 1-NPN
Lab note: anything with IC50 below 200 nM is marked 1 (yes); values at 200 nM or higher are marked 0 (no).

compound	measured_on	group
CCCCCCCCCCCC(=O)O	Odorant binding protein 18 (OBP18) (Apis mellifera, UniProt A0ACM8Q9Q2)	0 (no)
CCCCC/C=C\C/C=C\CCCCCCCC(=O)OC [Methyl linoleate]	Odorant binding protein 18 (OBP18) (Apis mellifera, UniProt A0ACM8Q9Q2)	1 (yes)
CCCCCCCC/C=C\CCCCCCCC(=O)O	Odorant binding protein 18 (OBP18) (Apis mellifera, UniProt A0ACM8Q9Q2)	1 (yes)
CCCCCCCCC(=O)O	Odorant binding protein 18 (OBP18) (Apis mellifera, UniProt A0ACM8Q9Q2)	0 (no)
C=CCc1ccc(O)c(OC)c1	Odorant binding protein 18 (OBP18) (Apis mellifera, UniProt A0ACM8Q9Q2)	0 (no)
CCCCCCCC/C=C\CCCCCCCC(N)=O [Oleamide]	Odorant binding protein 18 (OBP18) (Apis mellifera, UniProt A0ACM8Q9Q2)	1 (yes)
COc1cc(/C=C/CO)ccc1O	Odorant binding protein 18 (OBP18) (Apis mellifera, UniProt A0ACM8Q9Q2)	0 (no)
CC(C)=CCC/C(C)=C/C=O	Odorant binding protein 18 (OBP18) (Apis mellifera, UniProt A0ACM8Q9Q2)	0 (no)
CC(C)=CCC/C(C)=C/CO	Odorant binding protein 18 (OBP18) (Apis mellifera, UniProt A0ACM8Q9Q2)	0 (no)
O=C/C=C/c1ccccc1	Odorant binding protein 18 (OBP18) (Apis mellifera, UniProt A0ACM8Q9Q2)	0 (no)
